biological target: Aβ42 (amyloid-β protein) (Homo sapiens, UniProt P05067); construct: synthetic Aβ42 peptide, low-molecular-weight (LMW, monomeric) Aβ42; assay: ThT fluorescence aggregation assay with purified LMW Aβ[…] (no seeds); electron microscopy
Sequence (P05067 672-713 limits assumed): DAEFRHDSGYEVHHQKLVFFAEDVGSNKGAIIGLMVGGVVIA
measure: EC50 (mM)
# value in mM; strip the unit string

Recorded EC50 of `COc1cc(CCC(=O)O)ccc1O` , please. 6.37
